I'd appreciate it if you could supply target mRNA inhibition values for the items below.
system-name: MALAT1
condition-description: ASO, A431, 0.005 µM
After the bases stand the sugars from the 5' end (letter, count) and the backbone: PS all phosphorothioate, else s phosphorothioate and o phosphodiester by linkage. Methylation of C is not given here. k = constrained ethyl (cEt); d = 2'-deoxy (DNA)
Give bare numbers, in %.

Answered cases to consult:
{"columns": ["seq-text", "target mRNA inhibition (%)"],
 "data": [
  ["CACAAGGATCCAAGCT (sugars k3 d10 k3, PS)", 18],
  ["ATGGCTTTGTCTCCGA (sugars k3 d10 k3, PS)", 15],
  ["GTATTACTCTAATCAC (sugars k3 d10 k3, PS)", 34],
  ["TATAGTTTACCACCTT (sugars k3 d10 k3, PS)", 14],
  ["GACGCAATTCTCCCTG (sugars k3 d10 k3, PS)", 27]
]}

Quick request: target mRNA inhibition for each listed item, please.
1. GCTGAAATTGTCTCAA (sugars k3 d10 k3, PS)
2. TCCCGTACTTCTGTCT (sugars k3 d10 k3, PS)
3. GCCTTTAGGATTCTAG (sugars k3 d10 k3, PS)
4. TCAATAGTACTATAGC (sugars k3 d10 k3, PS)
5. AGCCTTGCAGGGACGG (sugars k3 d10 k3, PS)

Found:
45
41
30
25
-21

Quick request: target mRNA inhibition for each listed item, please.
1. TGAGTATAAGCCTGAA (sugars k3 d10 k3, PS)
2. CAAAATCCTGAATGGC (sugars k3 d10 k3, PS)
3. TTAGGTATGAGCTTCA (sugars k3 d10 k3, PS)
4. GCCAGTGGCCCACTCT (sugars k3 d10 k3, PS)
5. CTACAGACAAACACTA (sugars k3 d10 k3, PS)

Found:
1: 25; 2: 10; 3: 18; 4: -8; 5: 6

Quick request: target mRNA inhibition for each listed item, please.
1. TATAATAGAGCTACTT (sugars k3 d10 k3, PS)
2. GCTCGCCTCCTCCGTG (sugars k3 d10 k3, PS)
3. CGCTAAGATGCTAGCT (sugars k3 d10 k3, PS)
4. TCCCATAATTGTAGTT (sugars k3 d10 k3, PS)
5. AGCTTGGCCAAGTCTG (sugars k3 d10 k3, PS)

Found:
1: 15; 2: 27; 3: -6; 4: 27; 5: 28

Quick request: target mRNA inhibition for each listed item, please.
1. CAGAAAAAGCTTGTTC (sugars k3 d10 k3, PS)
2. TCATTAAGCCACTTCC (sugars k3 d10 k3, PS)
3. TCACAAATACGACTGC (sugars k3 d10 k3, PS)
4. CAATCAAGTCAAGCTC (sugars k3 d10 k3, PS)

Found:
37
19
23
3

====

system-name: IRF5
condition-description: ASO, KARPAS-229, 4 µM
After the bases stand the sugars from the 5' end (letter, count) and the backbone: PS all phosphorothioate, else s phosphorothioate and o phosphodiester by linkage. Methylation of C is not given here. e = 2'-O-(2-methoxyethyl) (MOE); k = constrained ethyl (cEt); d = 2'-deoxy (DNA)
measured-quantity: target mRNA inhibition (%)
Numbers only, in %.

Answered cases to consult:
{"columns": ["seq-text", "target mRNA inhibition / %"],
 "data": [
  ["GGTTCTTGGACTCTCA (sugars kdddddddddkekeke, PS)", 0],
  ["GTTATCTCCGTCCTGG (sugars k3 d10 k3, PS)", 31]
]}

Quick request: target mRNA inhibition for each listed item, please.
1. ATGAGTCATGGGCTGA (sugars kkkdddddddddkeke, PS)
2. TCACCACTGTGTACCC (sugars k2 d9 e3 k2, PS)
3. CACTGACACAGGCGGA (sugars kkkddddddddkdkdk, PS)
4. AGGAGTGAGACGAGCA (sugars k3 d9 k3 e1, PS)
5. TTATCTCCGTCCTGGC (sugars kkddddddddddkeke, PS)
6. GTGAGTCTCAAACCAG (sugars kkkddddddddkdkdk, PS)
7. CCAATGCAACATCCAT (sugars kkdddddddddkdkdk, PS)
8. GGTCTGGCCCTTTTGG (sugars kkdddddddddkekek, PS)

Found:
9
0
0
37
0
0
0
3
